Tested on: Ent. cloacae G-0006
Quick reference for MIC among some compounds
Respond with the bare value in µg/mL.

compound	MIC / µg/mL
CO[C@@]1(NC(=O)C(C(=O)O)c2ccsc2)C(=O)N2C(C(=O)O)=C(CSc3nnnn3C)[C@H](C)O[C@@H]21 (stereo partly shown)	3.13
C[C@@H]1O[C@@H]2[C@H](NC(=O)Cc3cccs3)C(=O)N2C(C(=O)O)=C1CSc1nnnn1C	100

Task item: Report MIC for CO[C@@]1(NC(=O)C(C(=O)O)c2cccs2)C(=O)N2C(C(=O)O)=C(CSc3nnnn3C)[C@@H](C)O[C@@H]21 (stereo partly shown) please.
Reply: 100

Task item: Report MIC for `C[C@H]1O[C@@H]2[C@H](NC(=O)Cc3cccs3)C(=O)N2C(C(=O)O)=C1CSc1nnnn1C` please.
Reply: 25

Task item: Report MIC for `CO[C@@]1(NC(=O)Cc2cccs2)C(=O)N2C(C(=O)O)=C(CSc3nnnn3C)[C@H](C)O[C@@H]21` please.
Reply: 100

Task item: Report MIC for CO[C@@]1(NC(=O)C(C(=O)O)c2cccs2)C(=O)N2C(C(=O)O)=C(CSc3nnnn3C)[C@H](C)O[C@@H]21 (stereo partly shown) please.
Reply: 6.25
